- ASSAY COMMENT: chemical genetic growth profiling, strain panel (AID 1159580);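 note: tested at 20 µM; growth read once vehicle control cultures reached saturation at 30 °C; 1 = growth at the plate median or of vehicle wells; lower values mean less growth of the strain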
- ASSAY CONTEXT: S. cerevisiae deletion strains, growth OD, locus YMR263W, strain SAP30, hits give low values
Screen size: about 5,500 compounds; about 2,000 (36%) were called active. Roughly 18% stayed inconclusive and do not appear here. Some of the results follow.

[
  {
    "MOLECULE": "CCOC(=O)c1nnc2cc(C)nn2c1C",
    "normalized growth": 0.95
  },
  {
    "MOLECULE": "CC(=O)O[C@@H]1CC2C(C)(C)CCC[C@]2(C)C2CC[C@]3(C)C(=CC(=O)O[C@H]3c3ccoc3)[C@@]21C (stereo partly specified)",
    "normalized growth": 1.02
  },
  {
    "MOLECULE": "CC(C)(C)C1=CC(=O)C=C(C(C)(C)C)C1=O",
    "normalized growth": 1.02
  },
  {
    "MOLECULE": "CC(=O)O[C@]1(C(C)=O)CC[C@H]2[C@@H]3C=C(Cl)C4=CC(=O)[C@@H]5C[C@@H]5[C@]4(C)[C@H]3CC[C@@]21C",
    "normalized growth": 0.993
  },
  {
    "MOLECULE": "Cn1c(SCc2ccccc2)nnc1-c1ccc2ncccc2c1",
    "normalized growth": 0.989
  },
  {
    "MOLECULE": "COc1cc(C)c2c(=O)c3c(O)cc(O)cc3oc2c1",
    "normalized growth": 0.979
  },
  {
    "MOLECULE": "O=C(O)CCC(=O)N1CCCC1C(=O)O (stereo unspecified)",
    "normalized growth": 1.01
  },
  {
    "MOLECULE": "CCn1nc(C)cc1C(=O)O",
    "normalized growth": 0.987
  },
  {
    "MOLECULE": "O=C(O)CN(CCOCCOCCN(CC(=O)O)CC(=O)O)CC(=O)O",
    "normalized growth": 1
  },
  {
    "MOLECULE": "N[C@H](CCC(=O)NCS(=O)(=O)O)C(=O)O",
    "normalized growth": 1.01
  },
  {
    "MOLECULE": "CCOC(=O)C1=C(O)C(=O)N(Cc2ccccc2)C1",
    "normalized growth": 0.999
  },
  {
    "MOLECULE": "COc1ccc(-c2cc(=O)c3c(O)cc(O)cc3o2)cc1O",
    "normalized growth": 0.982
  },
  {
    "MOLECULE": "Cn1c(SCC(=O)N2CCOCC2)nnc1-c1ccc2ncccc2c1",
    "normalized growth": 1
  },
  {
    "MOLECULE": "CC1(C)C(O)CC(=O)C2(C)C1CC(O)C1(C)C2CCC2(C)C(c3ccoc3)OC(=O)C3OC321 (stereo unspecified)",
    "normalized growth": 1.02
  },
  {
    "MOLECULE": "COC1C(O)C(O[C@H]2CC[C@]3(C=O)C4C(CC[C@]3(O)C2)[C@@]2(O)CC[C@H](C3=CC(=O)OC3)[C@@]2(C)C[C@H]4OC(C)=O)OC(C)C1OC(C)=O (stereo partly specified)",
    "normalized growth": 1.04
  },
  {
    "MOLECULE": "N#CC(=C(\\N)Sc1ccccc1N)/C(C#N)=C(/N)Sc1ccccc1N",
    "normalized growth": 1
  },
  {
    "MOLECULE": "C[N+]1(C)C[C@H](O)[C@H](C(=O)[O-])C1",
    "normalized growth": 1.02
  },
  {
    "MOLECULE": "CO[C@@H]1C[C@H](O[C@H]2CC[C@]3(C)C4CC[C@]5(C)[C@@H](C6=CC(=O)OC6)CC[C@]5(O)[C@@H]4CC[C@]3(O)C2)O[C@H](C)[C@@H]1O (stereo partly specified)",
    "normalized growth": 1.02
  },
  {
    "MOLECULE": "COc1cccc(OC)c1OCCNCC1CSc2ccccc2O1 (stereo unspecified)",
    "normalized growth": 0.995
  },
  {
    "MOLECULE": "CC[C@@]1(O)C(=O)OCc2c1cc1n(c2=O)Cc2cc3ccccc3nc2-1",
    "normalized growth": 0.847
  },
  {
    "MOLECULE": "O=[N+]([O-])c1ccc(Oc2c(Cl)cccc2Cl)c(Cl)c1Oc1c(Cl)cccc1Cl",
    "normalized growth": 1.01
  }
]
